# TARGET UNDER TEST: full-length human RORγt (GAL4-DBD-RORγt fusion) in HEK293T cells (Homo sapiens (Human))
# Sequence (P51449 other isoform, or with tags, fused parts or gaps): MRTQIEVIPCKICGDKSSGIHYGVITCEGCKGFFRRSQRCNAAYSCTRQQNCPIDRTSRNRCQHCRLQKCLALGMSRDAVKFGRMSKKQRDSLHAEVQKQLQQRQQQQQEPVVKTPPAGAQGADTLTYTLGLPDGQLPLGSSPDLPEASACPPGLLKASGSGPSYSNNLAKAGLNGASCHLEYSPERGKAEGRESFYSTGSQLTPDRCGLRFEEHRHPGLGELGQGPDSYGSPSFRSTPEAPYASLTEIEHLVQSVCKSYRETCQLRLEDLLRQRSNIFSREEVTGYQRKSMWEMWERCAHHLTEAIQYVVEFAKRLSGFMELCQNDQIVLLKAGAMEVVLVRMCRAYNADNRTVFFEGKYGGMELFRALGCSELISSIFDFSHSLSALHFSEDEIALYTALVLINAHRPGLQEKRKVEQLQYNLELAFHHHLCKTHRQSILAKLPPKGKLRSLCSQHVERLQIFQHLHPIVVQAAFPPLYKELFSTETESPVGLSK
# PROTOCOL DETAILS: RORγt (full-length human) reporter assay, conditions A or B
# STATED CONDITIONS: HEK293T cells; read-out: RORγt (FL) Reporter Assay A or B, IC50
pIC50: −log10 of the molar value.
Respond with Criterion met for pIC50 values of 7 and above, Criterion not met for values below.

Ask: For this compound, is measured pIC50 7 or higher? "CCn1nc(C(=O)NC[C@H]2CC[C@H](S(C)(=O)=O)CC2)c(C)c1-c1cnc(CCCC(F)(F)F)cc1OC(F)F"
Result: Criterion met

Ask: For this compound, is measured pIC50 7 or higher? "CCn1nc(C(=O)NC[C@]2(O)CC[C@@H](S(N)(=O)=O)CC2)c(C)c1-c1cnc(CC(C)(C)C(F)(F)F)cc1OC(F)F"
Result: Criterion not met

Ask: For this compound, is measured pIC50 7 or higher? "CCn1nc(C(=O)NC[C@H]2CC[C@H](S(C)(=O)=O)CC2)c(C)c1-c1cnc(CC(C(F)(F)F)C(F)(F)F)cc1OC(F)F"
Result: Criterion met

Ask: For this compound, is measured pIC50 7 or higher? "CCn1nc(C(=O)NC[C@]2(O)CC[C@@H](S(C)(=O)=O)CC2)c(C)c1-c1cnc(CC(C)(C)C(F)F)cc1OC(F)F"
Result: Criterion not met

Ask: For this compound, is measured pIC50 7 or higher? CCn1nc(C(=O)NC[C@H]2CC[C@H](S(C)(=O)=O)CC2)c(C)c1-c1cnc(C[C@@H](C)C(F)(F)F)cc1OC(F)F (single isomer, unassigned)
Result: Criterion met

Ask: For this compound, is measured pIC50 7 or higher? CCn1nc(C(=O)NC[C@]2(O)CC[C@@H](S(C)(=O)=O)C[C@H]2O)c(C)c1-c1cnc(CC(C)(C)C(F)F)cc1OC(F)F (stereo in doubt)
Result: Criterion not met

Ask: For this compound, is measured pIC50 7 or higher? "CCn1nc(C(=O)NC[C@]2(O)CC[C@@H](S(C)(=O)=O)CC2)c(Cl)c1-c1cnc(OCC(C)(C)C(F)(F)F)cc1OC"
Result: Criterion met

Ask: For this compound, is measured pIC50 7 or higher? "CCn1nc(C(=O)NC[C@H]2CC[C@H](S(C)(=O)=O)CC2)c(Cl)c1-c1cnc(CC(C)(C)C(F)(F)F)cc1OC(F)F"
Result: Criterion met

Ask: For this compound, is measured pIC50 7 or higher? "CCn1nc(C(=O)NC[C@]2(O)CC[C@@H](S(C)(=O)=O)CC2)c(Cl)c1-c1cnc(CC(C)(C)C(F)F)cc1OC(F)F"
Result: Criterion not met

Ask: For this compound, is measured pIC50 7 or higher? CCn1nc(C(=O)NC[C@]2(O)CC[C@@H](S(C)(=O)=O)C[C@H]2O)c(Cl)c1-c1cnc(CC(C)(C)C(F)F)cc1OC(F)F (stereo in doubt)
Result: Criterion not met

###

As shown below, each of these molecules has a reported pKd value.
# TARGET UNDER TEST: human RORγt ligand binding domain (RORγt LBD) (Homo sapiens (Human))
# Sequence (P51449 other isoform, or with tags, fused parts or gaps): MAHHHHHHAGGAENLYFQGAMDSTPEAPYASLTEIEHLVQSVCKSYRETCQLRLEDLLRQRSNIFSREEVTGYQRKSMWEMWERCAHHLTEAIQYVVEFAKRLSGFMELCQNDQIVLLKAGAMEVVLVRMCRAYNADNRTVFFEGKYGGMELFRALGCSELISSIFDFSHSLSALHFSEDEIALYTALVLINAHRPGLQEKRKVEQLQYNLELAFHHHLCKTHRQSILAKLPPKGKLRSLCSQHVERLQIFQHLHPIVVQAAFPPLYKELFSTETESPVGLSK
Scale: pKd equals -log10([C]), with [C] in mol/L.

{"MOLECULE": "CCn1nc(C(=O)NC[C@H]2CC[C@H](S(C)(=O)=O)CC2)c(C)c1-c1cnc(CCCC(F)(F)F)cc1OC(F)F", "READOUT NAME": "pKd", "NUMBER": 7.47}
{"MOLECULE": "CCn1nc(C(=O)NC[C@H]2CC[C@H](S(C)(=O)=O)CC2)c(Cl)c1-c1cnc(C[C@H](C)C(F)(F)F)cc1OC (single isomer, unassigned)", "READOUT NAME": "pKd", "NUMBER": 7.77}
{"MOLECULE": "CCn1nc(C(=O)NC[C@H]2CC[C@H](S(C)(=O)=O)CC2)c(C)c1-c1cnc(C[C@@H](C)C(F)(F)F)cc1OC(F)F (single isomer, unassigned)", "READOUT NAME": "pKd", "NUMBER": 7.77}
{"MOLECULE": "CCn1nc(C(=O)NC[C@H]2CC[C@H](S(C)(=O)=O)CC2)c(Cl)c1-c1cnc(C[C@@H](C)C(F)(F)F)cc1OC (single isomer, unassigned)", "READOUT NAME": "pKd", "NUMBER": 7.80}

Ask: Short answer please: pKd, human RORγt ligand binding domain (RORγt LBD) (Homo sapiens (Human)), entry "CCn1nc(C(=O)NC[C@]2(O)CC[C@@H](S(C)(=O)=O)CC2)c(Cl)c1-c1cnc(CC(C(F)(F)F)C(F)(F)F)cc1OC(F)F"
Result: 8.19

Ask: Short answer please: pKd, human RORγt ligand binding domain (RORγt LBD) (Homo sapiens (Human)), entry CCn1nc(C(=O)NC[C@@]2(O)CC[C@H](S(C)(=O)=O)C[C@@H]2O)c(Cl)c1-c1cnc(CC(C)(C)C(F)F)cc1OC(F)F (stereo in doubt)
Result: 7.40

Ask: Short answer please: pKd, human RORγt ligand binding domain (RORγt LBD) (Homo sapiens (Human)), entry "CCn1nc(C(=O)NC[C@H]2CC[C@H](S(C)(=O)=O)CC2)c(C)c1-c1cnc(CC(C)(C)C(F)F)cc1OC(F)F"
Result: 8.16

###

# TARGET UNDER TEST: human RORγt ligand binding domain (RORγt LBD) (Homo sapiens (Human))
As shown below, each of these compounds has a reported Kd value.
The reply should contain only the number, in nM.

{"COMPOUND": "CCn1nc(C(=O)NC[C@]2(O)CC[C@@H](S(C)(=O)=O)CC2)c(C)c1-c1ccc(CC(C)(C)C(F)(F)F)nc1OC(F)F", "DISPLAY UNIT": "nM", "NUMBER": 1.3}
{"COMPOUND": "CCn1nc(C(=O)NC[C@]2(O)CC[C@@H](S(C)(=O)=O)C[C@H]2O)c(C)c1-c1cnc(CC(C)(C)C(F)F)cc1OC(F)F (stereo in doubt)", "DISPLAY UNIT": "nM", "NUMBER": 69}

Ask: Short answer please: Kd, human RORγt ligand binding domain (RORγt LBD) (Homo sapiens (Human)), entry "Cn1nc(C(=O)NC[C@H]2CC[C@H](S(C)(=O)=O)CC2)c(Cl)c1-c1cnc(CC(C)(C)C(F)(F)F)cc1OC(F)F"
Result: 10

Ask: Short answer please: Kd, human RORγt ligand binding domain (RORγt LBD) (Homo sapiens (Human)), entry "CCn1nc(C(=O)NC[C@H]2CC[C@H](S(C)(=O)=O)CC2)c(C)c1-c1cnc(CC(C)(C)C(F)(F)F)cc1OC(F)F"
Result: 2.2

Ask: Short answer please: Kd, human RORγt ligand binding domain (RORγt LBD) (Homo sapiens (Human)), entry "CCn1nc(C(=O)NC[C@H]2CC[C@H](S(C)(=O)=O)CC2)c(Cl)c1-c1cnc(O[C@@H](C)C(F)(F)F)cc1OC"
Result: 15

Ask: Short answer please: Kd, human RORγt ligand binding domain (RORγt LBD) (Homo sapiens (Human)), entry "CCn1nc(C(=O)NC[C@]2(O)CC[C@@H](S(N)(=O)=O)CC2)c(Cl)c1-c1cnc(CC(C)(C)C(F)(F)F)cc1OC(F)F"
Result: 11

Ask: Short answer please: Kd, human RORγt ligand binding domain (RORγt LBD) (Homo sapiens (Human)), entry "CCn1nc(C(=O)NC[C@H]2CC[C@H](S(C)(=O)=O)CC2)c(Cl)c1-c1cnc(CC(C)(C)C(F)(F)F)cc1C(F)F"
Result: 17

Ask: Short answer please: Kd, human RORγt ligand binding domain (RORγt LBD) (Homo sapiens (Human)), entry "CCn1nc(C(=O)NC[C@]2(O)CC[C@@H](S(C)(=O)=O)CC2)c(Cl)c1-c1cnc(CC(C)(C)C(F)(F)F)cc1OC(F)F"
Result: 3.2

Ask: Short answer please: Kd, human RORγt ligand binding domain (RORγt LBD) (Homo sapiens (Human)), entry "CCn1nc(C(=O)NC[C@H]2CC[C@H](S(C)(=O)=O)CC2)c(Cl)c1-c1cnc(CC(C)(C)C(F)(F)F)cc1C(C)(F)F"
Result: 13

Ask: Short answer please: Kd, human RORγt ligand binding domain (RORγt LBD) (Homo sapiens (Human)), entry CCn1nc(C(=O)NC[C@@]2(O)CC[C@H](S(C)(=O)=O)C[C@@H]2O)c(Cl)c1-c1cnc(CC(C)(C)C(F)(F)F)cc1OC(F)F (stereo in doubt)
Result: 9.1

Ask: Short answer please: Kd, human RORγt ligand binding domain (RORγt LBD) (Homo sapiens (Human)), entry "CCn1nc(C(=O)NC[C@H]2CC[C@H](S(=O)(=O)NC(=O)NC)CC2)c(Cl)c1-c1cnc(CC(C)(C)C(F)(F)F)cc1OC(F)F"
Result: 1.9
